Kindly supply the reported Growth Rate values for the records listed here.
test system: Fibroblast; test: Incucyte cell viability with human fibroblast; type: toxicity, cell-based; settings: 18 h, 10 µM, compound concentration 10 uM, replicate number 2; further: unitless GR value; below 1 slowed growth and below 0 cell loss
Numbers only.

Observe how each entry below is paired with its result.
{"molecule": "CC(=O)N1CCN(c2ccc(OCC3COC(Cn4ccnc4)(c4ccc(Cl)cc4Cl)O3)cc2)CC1 (centres undefined)", "Growth Rate": 0.96}
{"molecule": "COc1cc(N2CCC(N3CCN(C)CC3)CC2)ccc1Nc1ncc(Cl)c(Nc2ccccc2S(=O)(=O)C(C)C)n1", "Growth Rate": -0.21}
{"molecule": "CC(=O)N1CCN([C@H]2CCC[C@@H](NC(=O)c3cc4c(F)ccc(C)c4[nH]3)C2)CC1.O=C(O)C(F)(F)F", "Growth Rate": 0.88}

Determine from records and report Growth Rate for O=C1CCCN1CCNc1nc(Nc2ccc(Cl)c(Cl)c2)ncc1C(F)(F)F 0.48
